Data origin: patent US12264159B2

# experimentDescription: Compound induced cellular toxicity in HepG2 cells, ATPlite 1Step
# Type: cell-based
# testConditions: human, three days exposure, 50% reduction of total ATP vs no drug controls
recordedEndpoint: CC50 at 3 days

| chemicalStructure | result |
| --- | --- |
| CC(C)(C)[C@@H]1Cn2nc(-c3cccc4c3OCCCO4)cc2-c2cc(=O)c(C(=O)O)cn21 | > 25 µM |
| CC(C)(C)[C@@H]1Cn2nc(-c3cnc(NC4CC4)nc3)cc2-c2cc(=O)c(C(=O)O)cn21 | > 25 µM |
| O=C(O)c1cn2c(cc1=O)-c1c(-c3cccc(F)c3)c(-c3cccc(F)c3)nn1C[C@H]2C1COC1 | > 25 µM |
| CC(C)(C)[C@@H]1Cn2nc(-c3ccncc3F)cc2-c2cc(=O)c(C(=O)O)cn21 | > 25 µM |
| CC(C)(C)[C@@H]1Cn2nc(C3CC3)c(-c3ccccc3F)c2-c2cc(=O)c(C(=O)O)cn21 | > 25 µM |
| CC(C)(C)[C@@H]1Cn2nc(-c3ccccc3OC(F)(F)F)cc2-c2cc(=O)c(C(=O)O)cn21 | > 25 µM |
| COCCOc1ccccc1-c1cc2n(n1)C[C@@H](C(C)(C)C)n1cc(C(=O)O)c(=O)cc1-2 | > 25 µM |
| Cc1cccc(-c2c(-c3ccc(F)cc3)nn3c2-c2cc(=O)c(C(=O)O)cn2[C@H](C(C)(C)C)C3)c1 | 10 to 25 µM |
| C[C@@H]1Cn2nc(-c3ccccc3)c(-c3ccccc3)c2-c2cc(=O)c(C(=O)O)cn21 | > 25 µM |
| CC(C)(C)[C@@H]1Cn2nc(-c3ccc(F)cc3)c(-c3ccccc3F)c2-c2cc(=O)c(C(=O)O)cn21 | 10 to 25 µM |
| C[C@@H]1Cn2nc(-c3cccc(F)c3)c(-c3cccc(F)c3)c2-c2cc(=O)c(C(=O)O)cn21 | 10 to 25 µM |
| CC(C)(C)[C@@H]1Cn2nc(-c3ccc(F)c(F)c3F)cc2-c2cc(=O)c(C(=O)O)cn21 | > 25 µM |
| CCOc1ccccc1-c1nc2n(n1)C[C@@H](C(C)(C)C)n1cc(C(=O)O)c(=O)cc1-2 | > 25 µM |
| CC(C)(C)[C@@H]1Cn2ncc(-c3ccoc3)c2-c2cc(=O)c(C(=O)O)cn21 | > 25 µM |
| CC(C)(C)[C@@H]1Cn2ncc(-c3ccc(F)c(F)c3)c2-c2cc(=O)c(C(=O)O)cn21 | < 10 µM |
